- tgt: human MOR (Homo sapiens, UniProt P35372)
- Construct: expressed in transfected cells; host or cells: CHO cells
- Sequence (P35372 whole entry): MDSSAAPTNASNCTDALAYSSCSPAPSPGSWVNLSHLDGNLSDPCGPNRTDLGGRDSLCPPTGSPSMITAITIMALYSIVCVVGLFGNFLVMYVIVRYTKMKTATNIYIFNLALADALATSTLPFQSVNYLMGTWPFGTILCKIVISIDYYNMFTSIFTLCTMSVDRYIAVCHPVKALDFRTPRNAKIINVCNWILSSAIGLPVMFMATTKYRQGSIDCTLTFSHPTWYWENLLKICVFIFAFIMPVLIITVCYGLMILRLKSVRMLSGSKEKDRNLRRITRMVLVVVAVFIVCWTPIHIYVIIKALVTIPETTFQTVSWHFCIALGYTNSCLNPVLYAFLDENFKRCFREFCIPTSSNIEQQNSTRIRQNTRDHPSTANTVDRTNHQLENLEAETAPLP
- test.details: biochemical
- Assay type: biochemical
- test.settings: Table 1-4, human MOP expressed in CHO cells; read-out: [35S]GTPγS binding, MOR EC50
pEC50: −log10 of the molar value.
Criterion: pEC50 meeting or surpassing 9. Met: true. Not met: false.

[
  {
    "structure.as.smiles": "CO[C@@]12CC[C@H](N[C@@H](Cc3ccccc3)C(=O)O)[C@@H]3Oc4c(O)ccc5c4[C@@]31CCN(C)[C@@H]2C5",
    "assigned.class": "true"
  }
]

Test whether the molecule "CO[C@@]12CC[C@@H](N[C@@H](CO)C(=O)O)[C@@H]3Oc4c(O)ccc5c4[C@@]31CCN(C)[C@@H]2C5" records pEC50 of 9 or higher.
false
